- target-entity: human TLR7 (Homo sapiens)
- Sequence (Q9NYK1 27-1049): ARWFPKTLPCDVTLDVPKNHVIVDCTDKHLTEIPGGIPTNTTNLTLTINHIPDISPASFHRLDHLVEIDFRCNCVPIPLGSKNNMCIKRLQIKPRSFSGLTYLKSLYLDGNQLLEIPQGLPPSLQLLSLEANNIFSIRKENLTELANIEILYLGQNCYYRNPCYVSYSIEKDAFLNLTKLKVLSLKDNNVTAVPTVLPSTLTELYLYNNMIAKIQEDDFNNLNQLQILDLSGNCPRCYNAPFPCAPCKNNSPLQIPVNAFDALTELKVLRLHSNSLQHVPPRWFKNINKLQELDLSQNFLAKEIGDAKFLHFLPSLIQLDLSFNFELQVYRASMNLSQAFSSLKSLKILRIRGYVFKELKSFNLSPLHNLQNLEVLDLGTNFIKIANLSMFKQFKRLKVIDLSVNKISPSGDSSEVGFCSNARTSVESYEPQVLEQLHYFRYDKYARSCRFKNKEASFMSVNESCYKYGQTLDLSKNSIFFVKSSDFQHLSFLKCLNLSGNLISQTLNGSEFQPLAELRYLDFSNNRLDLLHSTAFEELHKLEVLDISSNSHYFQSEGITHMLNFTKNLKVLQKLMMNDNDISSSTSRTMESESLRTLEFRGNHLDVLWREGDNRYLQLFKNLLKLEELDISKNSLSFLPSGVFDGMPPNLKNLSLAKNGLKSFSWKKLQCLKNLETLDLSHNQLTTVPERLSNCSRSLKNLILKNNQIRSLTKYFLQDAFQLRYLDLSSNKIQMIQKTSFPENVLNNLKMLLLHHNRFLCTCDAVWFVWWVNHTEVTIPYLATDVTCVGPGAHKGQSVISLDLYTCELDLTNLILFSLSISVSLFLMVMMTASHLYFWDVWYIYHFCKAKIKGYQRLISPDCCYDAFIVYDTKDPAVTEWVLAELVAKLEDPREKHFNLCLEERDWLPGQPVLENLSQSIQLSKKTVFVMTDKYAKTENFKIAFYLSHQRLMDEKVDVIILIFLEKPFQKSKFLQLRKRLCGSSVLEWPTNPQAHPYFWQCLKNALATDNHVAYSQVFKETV
- assay-text: TLR7 inhibition reporter assay (HEK-Blue cells, SEAP reporter, gardiquimod stimulation)
- experimental-conditions: HEK-Blue cells overexpressing human TLR7, SEAP reporter, gardiquimod 7.5 μM
recorded-metric: IC50 (nM)

Here is how some compounds turned out for IC50.
>>> print(df.to_string())
                                   compound  experimental_result
0  COc1cc(-c2[nH]c3ccc(C4CN(CC(=O)N(C)C)CCO4)cc3c2C(C)C)cn2ncnc12 (stereo not drawn)                   24
1  COc1cc(-c2[nH]c3ccc(C4CCC(N5CC(C)OC(C)C5)CC4)cc3c2C(C)C)cn2ncnc12 (stereo not drawn)                    4
2  Cc1c(-c2[nH]c3ccc(C4CC(NC(=O)CN(C)C)C4)cc3c2C(C)C)cn2ncnc2c1C (stereo not drawn) [Example 573]                    3
3  Cc1c(-c2[nH]c3ccc(C4CCCN(C(=O)CN(C)C)C4)cc3c2C(C)C)cn2ncnc2c1C (stereo not drawn)                    1
4  CNC(=O)CN1CCOC(c2ccc3[nH]c(-c4cc(OC)c5ncnn5c4)c(C(C)C)c3c2)C1 (stereo not drawn) [Example 310]                   15
5  Cc1c(-c2[nH]c3ccc(C4CN(C5COC5)C4)cc3c2C(C)C)cn2cnnc2c1C                   19
6  COc1cc(-c2[nH]c3ccc(CCN4CCOCC4)cc3c2C(C)C)cn2ncnc12                    7
7  COc1cc(-c2[nH]c3ccc(C4CC(NCCS(C)(=O)=O)C4)cc3c2C(C)C)cn2ncnc12 (stereo not drawn)                 0.53

[1] Cc1cc(-c2[nH]c3ccc(C4CCC(N5CCCC(F)(F)C5)CC4)cc3c2C(C)C)cn(C)c1=O (stereo not drawn) [Example 467]
[2] Cc1c(-c2[nH]c3ccc(C4CCC(NC(=O)CN(C)C)CC4)cc3c2C(C)C)cn(C)c(=O)c1C (stereo not drawn) [Example 472]
[3] Cc1c(-c2[nH]c3ccc(C4CCCNC4)cc3c2C(C)C)ccc2ncnn12 (stereo not drawn)
[4] Cc1c(-c2[nH]c3ccc(C4CCC(NCC(=O)N(C)C)CC4)cc3c2C(C)C)cn2cnnc2c1C (stereo not drawn) [Example 518]
Arrange items by their IC50 values in increasing order. Sort and list the labels as requested.
4, 2, 1, 3
